These measurements were taken from the Human Domainome abundance scans (Beltran et al. 2025).

The variants listed here are annotated with their abundance fitness.
B1: Peroxisome proliferator-activated receptor delta, residues 71 to 145; numbered along this chain, Q03181 (parent)
chain: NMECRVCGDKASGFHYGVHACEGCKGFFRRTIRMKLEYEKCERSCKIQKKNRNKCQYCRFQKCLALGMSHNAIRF

# Variants of: B1
# MEASUREMENT DESCRIPTION: abundance fitness (aPCA) (normalised: wild type 0, dead -1); higher = more abundant; growth selection in yeast, the domain comes from the species named
# EXPERIMENTAL PARAMETERS: Homo sapiens
Respond numerically, and do not add a unit to the figure.

> print(dat)
   mutant  reported.endpoint  test.value
1    H19I  abundance fitness       0.009

Which abundance fitness value is on record for "C45M" ?
-0.548

Report abundance fitness for "S12R" please.
-0.351

Entry "N51C" : reported abundance fitness = ?
-0.451

Dear colleague, I am looking for the recorded abundance fitness of the following variant: "A20Q"
-0.874

Please report the recorded abundance fitness for "R43W" .
-0.252

Tell me the measured abundance fitness of "K10N" , please.
-0.075
